For each record, write down the corresponding Percent Effect.
Biological target: Tyrosyl-tRNA synthetase, putative (Trypanosoma cruzi (strain CL Brener))
Assay: Trypanosoma cruzi tyrosyl tRNA synthetase (TcYRS) SOP
Type: functional
Design: scale not given: direction of the effect not stated beside the values
Conditions: 30 µM
Give bare numbers, in %.

Answered examples (2):
CC(C)c1ncc(CN2C[C@@H](CN3CCC(CO)CC3)[C@@H](CO)C2)cn1 :: 11.1
O=C(NCC(F)(F)F)C1CSCN1S(=O)(=O)c1ccc(F)cc1 (stereo not drawn) :: 30.4

Quick request: Percent Effect for each listed item, please.
1. Cn1cnc2c1C(COCC1CCOCC1)CN(C1CCOCC1)C2 (stereo not drawn)
2. CC(CN1CCCC1)C(=O)N1CCC(c2nccn2CC2CC2)CC1 (stereo not drawn)
3. CN(CCO)Cc1nnc(C2CCN(C(=O)C(C)(C)C)CC2)n1C

[11.5, 21.9, 3.7]

Quick request: Percent Effect for each listed item, please.
1. Cc1cc(CN(C)C(=O)c2cc3c([nH]c2=O)CCCC3=O)no1
2. Cc1nc(CCCNC(=O)C2CC(=O)N(C3CC3)C2)sc1C (stereo not drawn)
3. Cc1ccc(N2CCCC(NCc3nc(C)c(C)o3)C2)nn1 (stereo not drawn)

1: 6.1; 2: 28.4; 3: 15.2
